Test details: clinical
Condition context: human, in vivo, po, 10 mg, t1/2 (elimination half-life), mean ± SD (% CV)
Readout label: half-life

1) C[C@H]1Cc2c([nH]c3cc(Cl)c(F)cc23)[C@@]2(N1)C(=O)Nc1ccc(Cl)cc12    ~26 h

###

Test details: clinical
Condition context: human, in vivo, po, 10 mg
Readout label: Vd/F (L)

1) C[C@H]1Cc2c([nH]c3cc(Cl)c(F)cc23)[C@@]2(N1)C(=O)Nc1ccc(Cl)cc12    209

###

Test details: clinical
Condition context: human, in vivo, po, 10 mg, AUC0–last, mean ± SD (% CV)
Readout label: AUC(0-t) (µg·h/mL)

1) C[C@H]1Cc2c([nH]c3cc(Cl)c(F)cc23)[C@@]2(N1)C(=O)Nc1ccc(Cl)cc12    1.85

###

Test details: clinical
Condition context: human, in vivo, po, 10 mg
Readout label: AUC(0-inf) (ng·h/mL)

1) C[C@H]1Cc2c([nH]c3cc(Cl)c(F)cc23)[C@@]2(N1)C(=O)Nc1ccc(Cl)cc12    1950

###

Test details: clinical
Condition context: human, in vivo, po, 10 mg
Readout label: Cmax (ng/mL)

1) C[C@H]1Cc2c([nH]c3cc(Cl)c(F)cc23)[C@@]2(N1)C(=O)Nc1ccc(Cl)cc12 [cipargamin]    101

###

Test details: clinical
Condition context: human, in vivo, po, 10 mg, AUC0–24 h, mean ± SD (% CV)
Readout label: AUC(0-t) (ng·h/mL)

1) C[C@H]1Cc2c([nH]c3cc(Cl)c(F)cc23)[C@@]2(N1)C(=O)Nc1ccc(Cl)cc12 [cipargamin]    1010
